These measurements were taken from ChEMBL document CHEMBL5647682.

Target: Phosphatidylinositol 4,5-bisphosphate 3-kinase catalytic subunit alpha isoform (Homo sapiens, UniProt P42336)
Sequence (P42336 whole entry, canonical isoform): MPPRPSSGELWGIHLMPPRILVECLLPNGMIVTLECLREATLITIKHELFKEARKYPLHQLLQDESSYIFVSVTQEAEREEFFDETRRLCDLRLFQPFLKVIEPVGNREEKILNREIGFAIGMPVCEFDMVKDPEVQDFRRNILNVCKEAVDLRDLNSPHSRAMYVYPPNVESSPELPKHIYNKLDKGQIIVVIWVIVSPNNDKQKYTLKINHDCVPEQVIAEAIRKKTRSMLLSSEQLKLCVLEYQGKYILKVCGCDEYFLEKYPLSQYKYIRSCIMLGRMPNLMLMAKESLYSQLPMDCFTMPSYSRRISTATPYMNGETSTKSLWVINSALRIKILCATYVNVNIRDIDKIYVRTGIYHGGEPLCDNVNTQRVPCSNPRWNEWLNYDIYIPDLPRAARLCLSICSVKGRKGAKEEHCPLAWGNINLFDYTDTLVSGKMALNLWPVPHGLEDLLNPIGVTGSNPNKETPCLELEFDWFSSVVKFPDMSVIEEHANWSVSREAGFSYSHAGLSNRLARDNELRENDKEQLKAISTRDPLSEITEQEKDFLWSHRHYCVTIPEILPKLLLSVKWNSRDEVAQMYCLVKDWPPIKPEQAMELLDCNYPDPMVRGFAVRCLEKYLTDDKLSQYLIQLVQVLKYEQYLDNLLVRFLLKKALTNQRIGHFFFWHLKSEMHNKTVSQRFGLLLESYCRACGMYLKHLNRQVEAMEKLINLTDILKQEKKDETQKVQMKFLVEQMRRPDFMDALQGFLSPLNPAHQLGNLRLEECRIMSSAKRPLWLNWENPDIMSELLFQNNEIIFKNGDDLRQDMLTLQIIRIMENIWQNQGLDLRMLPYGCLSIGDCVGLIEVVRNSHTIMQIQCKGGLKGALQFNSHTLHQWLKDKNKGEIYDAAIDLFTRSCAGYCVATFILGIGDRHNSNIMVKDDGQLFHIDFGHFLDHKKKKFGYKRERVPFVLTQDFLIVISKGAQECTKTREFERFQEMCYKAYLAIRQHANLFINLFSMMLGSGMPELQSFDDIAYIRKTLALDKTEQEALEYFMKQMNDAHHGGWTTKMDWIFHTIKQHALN
Assay: Inhibition of GST-tagged Ptdlns3p P110alpha (unknown origin) expressed in baculovirus infected insect cells incubated for 15 mins in presence of ATP
parameter: IC50 (µM)
State the answer as a number, implicitly in µM.

Incoming: # query: IC50 of entry Nc1ccc(C(=O)Nc2cccc(-c3nc(N4CCOCC4)c4oc5ncccc5c4n3)c2)cn1
Outgoing: 3.3

----------
System: NIH3T3
Assay: Induction of swollen vesicle phenotype in mouse NIH3T3 cells incubated for 120 mins by time-lapse analysis
Type: functional, cell-based
Details: NIH3T3, 2 h
parameter: pEC50
FYI, pEC50 means -log10 of a concentration in mol per litre.

Incoming: What measured pEC50 is associated with Nc1ccc(C(=O)Nc2cccc(-c3nc(N4CCOCC4)c4oc5ncccc5c4n3)c2)cn1 on NIH3T3?
Outgoing: 6.40

----------
Assay: Inhibition of Saccharomyces cerevisiae GST-tagged PIKfyve
parameter: IC50 (nM)
Field: numeric (nM). Do not append units.

Incoming: Endpoint output: IC50 of Nc1ccc(C(=O)Nc2cccc(-c3nc(N4CCOCC4)c4oc5ncccc5c4n3)c2)cn1 . Value?
Outgoing: 33

----------
In this section we review reported pIC50 values for a set of compounds.
Biological target: 1-phosphatidylinositol 3-phosphate 5-kinase FAB1 (Saccharomyces cerevisiae (strain ATCC 204508 / S288c) (Baker's yeast), UniProt P34756)
Sequence (P34756 whole entry): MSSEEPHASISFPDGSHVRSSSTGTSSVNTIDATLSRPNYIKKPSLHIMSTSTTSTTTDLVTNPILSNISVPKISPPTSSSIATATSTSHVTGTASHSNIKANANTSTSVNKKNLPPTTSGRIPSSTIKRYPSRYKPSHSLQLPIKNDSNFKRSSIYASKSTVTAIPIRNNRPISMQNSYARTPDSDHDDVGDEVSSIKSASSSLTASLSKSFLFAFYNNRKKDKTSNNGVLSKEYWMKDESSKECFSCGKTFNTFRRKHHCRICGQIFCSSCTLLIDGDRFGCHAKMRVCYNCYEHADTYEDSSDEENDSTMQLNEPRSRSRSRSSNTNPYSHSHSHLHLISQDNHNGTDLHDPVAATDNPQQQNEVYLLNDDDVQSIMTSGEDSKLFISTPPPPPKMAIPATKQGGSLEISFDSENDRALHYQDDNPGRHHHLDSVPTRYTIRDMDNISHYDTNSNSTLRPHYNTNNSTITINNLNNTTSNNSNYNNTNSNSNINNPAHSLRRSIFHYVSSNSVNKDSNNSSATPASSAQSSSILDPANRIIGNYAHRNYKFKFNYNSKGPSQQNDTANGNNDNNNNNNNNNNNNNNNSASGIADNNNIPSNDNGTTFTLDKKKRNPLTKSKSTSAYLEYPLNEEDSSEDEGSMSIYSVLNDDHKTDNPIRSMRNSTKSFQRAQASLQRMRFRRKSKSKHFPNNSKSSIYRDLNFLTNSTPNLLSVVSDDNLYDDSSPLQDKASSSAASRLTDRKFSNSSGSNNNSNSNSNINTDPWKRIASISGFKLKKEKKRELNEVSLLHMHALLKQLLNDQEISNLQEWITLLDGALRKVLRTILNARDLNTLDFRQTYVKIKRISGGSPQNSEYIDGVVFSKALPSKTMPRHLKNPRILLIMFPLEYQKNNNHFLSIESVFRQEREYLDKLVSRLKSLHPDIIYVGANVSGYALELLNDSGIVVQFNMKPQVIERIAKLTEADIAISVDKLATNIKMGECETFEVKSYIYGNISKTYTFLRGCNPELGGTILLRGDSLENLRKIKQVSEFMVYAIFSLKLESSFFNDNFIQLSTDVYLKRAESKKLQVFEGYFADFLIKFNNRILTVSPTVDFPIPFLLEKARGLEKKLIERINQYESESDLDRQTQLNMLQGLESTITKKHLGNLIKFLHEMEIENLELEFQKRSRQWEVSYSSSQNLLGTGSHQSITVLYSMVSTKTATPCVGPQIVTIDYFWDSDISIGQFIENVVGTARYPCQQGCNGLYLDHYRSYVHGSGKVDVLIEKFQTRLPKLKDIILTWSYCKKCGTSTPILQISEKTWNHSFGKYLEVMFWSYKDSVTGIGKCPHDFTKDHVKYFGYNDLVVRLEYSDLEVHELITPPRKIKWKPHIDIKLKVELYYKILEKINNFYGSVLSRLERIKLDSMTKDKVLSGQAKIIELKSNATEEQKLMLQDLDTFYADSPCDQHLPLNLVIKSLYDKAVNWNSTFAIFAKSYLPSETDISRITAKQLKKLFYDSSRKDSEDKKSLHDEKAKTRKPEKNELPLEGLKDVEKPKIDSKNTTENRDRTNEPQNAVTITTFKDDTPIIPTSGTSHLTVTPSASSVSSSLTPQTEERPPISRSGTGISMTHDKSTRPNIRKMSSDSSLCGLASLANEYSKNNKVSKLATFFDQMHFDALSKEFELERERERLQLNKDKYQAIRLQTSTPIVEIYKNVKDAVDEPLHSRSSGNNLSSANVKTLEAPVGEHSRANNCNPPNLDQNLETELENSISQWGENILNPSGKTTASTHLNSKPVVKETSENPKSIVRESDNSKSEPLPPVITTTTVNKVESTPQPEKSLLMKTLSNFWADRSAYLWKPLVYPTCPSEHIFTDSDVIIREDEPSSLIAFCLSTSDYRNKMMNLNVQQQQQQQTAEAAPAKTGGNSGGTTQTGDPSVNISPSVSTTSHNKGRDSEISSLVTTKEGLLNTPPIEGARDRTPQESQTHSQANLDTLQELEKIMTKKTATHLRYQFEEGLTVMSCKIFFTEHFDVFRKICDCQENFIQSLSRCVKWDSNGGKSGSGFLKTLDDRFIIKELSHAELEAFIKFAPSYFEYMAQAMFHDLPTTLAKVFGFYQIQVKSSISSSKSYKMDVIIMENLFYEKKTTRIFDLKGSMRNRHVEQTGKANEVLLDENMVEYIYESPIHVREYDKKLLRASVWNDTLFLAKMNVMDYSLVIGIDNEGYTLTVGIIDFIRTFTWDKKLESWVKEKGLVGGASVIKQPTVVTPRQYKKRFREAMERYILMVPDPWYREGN
Assay: Inhibition of Saccharomyces cerevisiae GST-tagged Fab1 incubated for 15 mins in presence of ATP
pIC50: −log10 of the molar value.

| smiles_str | pIC50 |
| --- | --- |
| Oc1cccc(-c2nc(N3CCOCC3)c3oc4ncccc4c3n2)c1 | < 5.00 |

Below: the item to evaluate.
Incoming: Any idea what its pIC50 is? The compound is Nc1ccc(C(=O)Nc2cccc(-c3nc(N4CCOCC4)c4oc5ncccc5c4n3)c2)cn1
Outgoing: < 5.30
